# Test system: 786-0
# METHOD_NOTES: NCI tumour cell line growth inhibition, 48 h
Active and inactive are the calls of the source. No stated cut-off is given here; in the data, active = GI50 up to about 1.1 µM and inactive = higher.
Outcome codes: active, inactive

- MOLECULE: "O=C(Nc1ccccc1-c1nn(C(=S)Nc2ccccc2)c(=S)n(C(=S)Nc2ccccc2)c1=O)C(F)(F)F"
  GROUP: "inactive"
- MOLECULE: "C[C@@]12C[C@@H](c3ccccc3O1)N1CCSC1=N2"
  GROUP: "inactive"
- MOLECULE: "N#C/C(=C1\\SCC(=O)N1c1ccccc1)c1nc2ccccc2[nH]1"
  GROUP: "inactive"
- MOLECULE: "Nc1ccc(Nc2cc(O)nc(O)n2)cc1"
  GROUP: "inactive"
- MOLECULE: "O=C(O)CN(CC(=O)O)c1ccccc1"
  GROUP: "inactive"
- MOLECULE: "C/C(=N\\NC(=S)N(C)C)c1ccccn1"
  GROUP: "active"
- MOLECULE: "O=c1c(-c2ccccc2Cl)coc2cc(F)ccc12"
  GROUP: "inactive"
- MOLECULE: "c1ccc2cc(OCC3CO3)c(OCC3CO3)cc2c1 (stereo not drawn)"
  GROUP: "inactive"
- MOLECULE: "CC(=O)OC1CC[C@@]2(C)C(CC[C@]3(C)C2CC=C2[C@@H]4C(C)[C@H](C)CCC4(C)CCC23C)[C@@]1(C)C(=O)O (stereo partly drawn)"
  GROUP: "inactive"
- MOLECULE: "C=CC1(CC[C@]2(c3ccc(OC)c(OC)c3)C=[N+]([O-])O[C@H](O[C@@H]3CCCC[C@H]3C(C)(C)c3ccccc3)C2)OCC(C)(C)CO1"
  GROUP: "inactive"
- MOLECULE: "COc1cc(/C=C/C2=NN(c3cccc(S(=O)(=O)O)c3)C3(C2)SCC(=O)N3c2nc3ccccc3s2)cc(OC)c1OC (stereo not drawn)"
  GROUP: "inactive"
- MOLECULE: "Cc1c2c(cc[n+]1C)O[B-](c1ccccc1)(c1ccccc1)O2"
  GROUP: "inactive"
- MOLECULE: "Clc1ccc(C2=Nc3ccccc3SC(c3ccc(Cl)c(Cl)c3)C2)c(Cl)c1 (stereo not drawn)"
  GROUP: "inactive"
- MOLECULE: "CC1=C2C(=O)[C@H]3[C@@H](CC=C4C[C@@H](O)CC[C@@]43C)[C@@H]2CC[C@]12O[C@@H]1C[C@H](C)CN[C@H]1[C@H]2C [JERVINE]"
  GROUP: "inactive"
- MOLECULE: "Cn1c(=O)c2c3ccccc3n(C)c2n(C)c1=O"
  GROUP: "inactive"
- MOLECULE: "C[C@H](O)CCC(=O)c1ccoc1"
  GROUP: "inactive"
- MOLECULE: "[N-]=[N+]=C(C(=O)OCC#CCOC(=O)C(=[N+]=[N-])S(=O)(=O)c1ccccc1)S(=O)(=O)c1ccccc1"
  GROUP: "inactive"
- MOLECULE: "CC1=C(OC2OC(CO)C(O)C(O)C2O)C(=O)C[C@H]2C1=CC[C@@H]1[C@@]2(C)C(=O)C[C@]2(C)[C@@H]([C@@](C)(O)C(=O)CCC(C)(C)O)[C@H](O)C[C@@]12C (stereo partly drawn)"
  GROUP: "inactive"

---

# Test system: M14
# METHOD_NOTES: NCI tumour cell line growth inhibition, 48 h
Active and inactive are the calls of the source. No stated cut-off is given here; in the data, active = GI50 up to about 1.1 µM and inactive = higher.
Some compounds, each annotated with its measured GI50.

- COMPOUND: "COc1cc(C2SC(=N)Nc3c2c(C)nn3C(=O)c2ccc(Cl)cc2)ccc1O (stereo not drawn)"
  GI50: "> 10 µM (inactive)"
- COMPOUND: "COC(=O)C1=C(C[S+]([O-])c2ccc([N+](=O)[O-])cc2[N+](=O)[O-])C2C=CC1C2 (stereo not drawn)"
  GI50: "42.6 µM (inactive)"
- COMPOUND: "COc1cccc(N2C(Cl)C(=O)C2c2c[nH]c3ccccc23)c1 (stereo not drawn)"
  GI50: "> 100 µM (inactive)"
- COMPOUND: "CC(C)(Sc1cc(C(C)(C)C)c(O)c(C(C)(C)C)c1)Sc1cc(C(C)(C)C)c(O)c(C(C)(C)C)c1 [PROBUCOL]"
  GI50: "> 100 µM (inactive)"
- COMPOUND: "O=C(O)CCCN/C(=C1\\C(=O)C(=O)N(c2ccccc2)C1=O)c1ccccc1"
  GI50: "> 100 µM (inactive)"
- COMPOUND: "CC(=O)Oc1ccc2cc(Oc3ccccc3)c(=O)oc2c1"
  GI50: "> 100 µM (inactive)"
- COMPOUND: "O=C(CC1(O)C(=O)Nc2ccccc21)c1ccc(Cl)cc1Cl (stereo not drawn)"
  GI50: "> 100 µM (inactive)"
- COMPOUND: "C1=C[C@]2(CCC13OCCO3)COc1ccccc12"
  GI50: "26.6 µM (inactive)"
- COMPOUND: "CCOP(=O)(OCC)/C(C#N)=C/c1cccn1C(C)C"
  GI50: "> 100 µM (inactive)"
- COMPOUND: "Cc1cc2ccccc2oc(=O)/c1=N\\Nc1ccccc1"
  GI50: "> 100 µM (inactive)"
- COMPOUND: "COC(=O)CC(=O)OC"
  GI50: "> 100 µM (inactive)"
- COMPOUND: "Cn1c2ccccc2c(=S)c2cc(NC(=O)CCCCC(=O)Nc3ccc4c(c3)c(=S)c3ccccc3n4C)ccc21"
  GI50: "> 100 µM (inactive)"
- COMPOUND: "Cc1c2c(cc[n+]1C)O[B-](c1ccccc1)(c1ccccc1)O2"
  GI50: "41.5 µM (inactive)"

---

# Tested on: ACHN
# METHOD_NOTES: NCI tumour cell line growth inhibition, 48 h
The source made the active and inactive calls. Rule as the data show it: active = GI50 up to about 1.1 µM and inactive = higher.
VALUE_KIND: GI50

- MOLECULE: "C=CCNC(=O)NCCCCC(NC(C)=O)C(=O)NCc1ccccc1 (configuration not stated)"
  VALUE_KIND: "GI50"
  ENDPOINT_VALUE: "> 100 µM (inactive)"
- MOLECULE: "COc1ccc(C(O)/C(=C/n2ccnc2)c2ccccc2)cc1OC (configuration not stated)"
  VALUE_KIND: "GI50"
  ENDPOINT_VALUE: "> 100 µM (inactive)"
- MOLECULE: "C[C@@H](NC1CCCC[C@@H]1O)c1ccccc1 (some centres not stated)"
  VALUE_KIND: "GI50"
  ENDPOINT_VALUE: "> 100 µM (inactive)"
- MOLECULE: "COc1cc(-c2coc3c(OC)c(OC4OC(COC5OC(C)C(O)C(O)C5O)C(O)C(O)C4O)c(OC)c(O)c3c2=O)cc(C)c1O (configuration not stated)"
  VALUE_KIND: "GI50"
  ENDPOINT_VALUE: "21.2 µM (inactive)"
- MOLECULE: "NCCCc1ccc2oc3ccccc3c2c1"
  VALUE_KIND: "GI50"
  ENDPOINT_VALUE: "17.5 µM (inactive)"
- MOLECULE: "O=C(O)CC(NC(=O)/C(=C/c1ccccc1O)NC(=O)c1ccccc1)C(=O)O (configuration not stated)"
  VALUE_KIND: "GI50"
  ENDPOINT_VALUE: "40.8 µM (inactive)"
- MOLECULE: "Clc1nc(Cl)nc(NC23CC4CC(CC(C4)C2)C3)n1"
  VALUE_KIND: "GI50"
  ENDPOINT_VALUE: "35.3 µM (inactive)"
- MOLECULE: "O=[N+]([O-])c1cnn(C2=CNc3ccccc3N=C2)c1"
  VALUE_KIND: "GI50"
  ENDPOINT_VALUE: "> 100 µM (inactive)"
- MOLECULE: "O=c1[nH]nc(Cc2ccccc2)n1/N=C/c1ccccc1O"
  VALUE_KIND: "GI50"
  ENDPOINT_VALUE: "> 100 µM (inactive)"
- MOLECULE: "N/N=C(\\c1nc2ccc([N+](=O)[O-])cc2nc1O)C(O)c1ccc(Cl)c(Cl)c1 (configuration not stated)"
  VALUE_KIND: "GI50"
  ENDPOINT_VALUE: "54.1 µM (inactive)"
- MOLECULE: "Nc1ccc(-c2nc3cc(F)ccc3s2)cc1Cl"
  VALUE_KIND: "GI50"
  ENDPOINT_VALUE: "1.57 µM (inactive)"
- MOLECULE: "O=C(Cn1c2c(c3ccccc31)CCCC2)N1CCOCC1"
  VALUE_KIND: "GI50"
  ENDPOINT_VALUE: "> 100 µM (inactive)"

---

# System: HCT-116
# METHOD_NOTES: NCI tumour cell line growth inhibition, 48 h
Activity calls are given as the source filed them. Rule as the data show it: active = GI50 up to about 1.1 µM and inactive = higher.
Some compounds, each annotated with its measured GI50.
VALUE_KIND: GI50

- COMPOUND: "Cn1nc2ccc3nccc(N4CCN(CCO)CC4)c3c2n1"
  TEST_TARGET: "HCT-116"
  VALUE_KIND: "GI50"
  ENDPOINT_VALUE: "> 100 µM (inactive)"
- COMPOUND: "CC(=O)N1CCN(C=S)CC1"
  TEST_TARGET: "HCT-116"
  VALUE_KIND: "GI50"
  ENDPOINT_VALUE: "> 100 µM (inactive)"
- COMPOUND: "C=C1CC(C)(c2cccc(Nc3nc4ccccc4c4occc34)c2)OC1=O (stereo not given)"
  TEST_TARGET: "HCT-116"
  VALUE_KIND: "GI50"
  ENDPOINT_VALUE: "1.67 µM (inactive)"
- COMPOUND: "[N-]=[N+]=C(C(=O)OCC#CCOC(=O)C(=[N+]=[N-])S(=O)(=O)c1ccccc1)S(=O)(=O)c1ccccc1"
  TEST_TARGET: "HCT-116"
  VALUE_KIND: "GI50"
  ENDPOINT_VALUE: "> 10 µM (inactive)"
- COMPOUND: "COC1O[C@@H]2COC(C)(C)O[C@@H]2C(=O)N1Nc1ccc([N+](=O)[O-])cc1 (stereo not given in full)"
  TEST_TARGET: "HCT-116"
  VALUE_KIND: "GI50"
  ENDPOINT_VALUE: "> 100 µM (inactive)"
